- experimental-system: furin, P09958;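 note: purified furin at 1:10 enzyme:substrate in 50 mM HEPES pH 7.5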
- Sequence (P09958 whole entry): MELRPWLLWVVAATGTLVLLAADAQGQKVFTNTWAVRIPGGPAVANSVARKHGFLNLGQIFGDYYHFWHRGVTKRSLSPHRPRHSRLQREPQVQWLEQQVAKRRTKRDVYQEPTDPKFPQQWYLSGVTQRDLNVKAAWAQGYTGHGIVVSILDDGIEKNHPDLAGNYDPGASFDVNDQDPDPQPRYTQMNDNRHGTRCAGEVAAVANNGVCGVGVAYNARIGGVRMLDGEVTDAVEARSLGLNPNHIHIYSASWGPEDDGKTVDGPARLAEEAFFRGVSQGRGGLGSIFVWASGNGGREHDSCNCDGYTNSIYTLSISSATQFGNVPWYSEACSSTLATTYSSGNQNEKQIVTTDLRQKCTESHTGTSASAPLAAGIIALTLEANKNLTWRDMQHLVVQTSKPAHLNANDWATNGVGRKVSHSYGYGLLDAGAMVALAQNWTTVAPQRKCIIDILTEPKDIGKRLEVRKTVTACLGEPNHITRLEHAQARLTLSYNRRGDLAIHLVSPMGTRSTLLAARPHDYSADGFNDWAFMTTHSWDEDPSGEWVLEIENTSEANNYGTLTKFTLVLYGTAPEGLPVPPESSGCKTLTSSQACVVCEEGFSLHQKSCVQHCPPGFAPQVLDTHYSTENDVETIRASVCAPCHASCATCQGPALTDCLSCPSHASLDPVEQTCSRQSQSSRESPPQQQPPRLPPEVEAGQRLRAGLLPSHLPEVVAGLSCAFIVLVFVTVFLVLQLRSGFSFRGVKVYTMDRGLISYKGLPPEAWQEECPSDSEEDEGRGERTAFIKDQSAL
- assay-text: furin cleavage Z-score vs untreated control; higher = more cleavage, active = 3.5 or more, inactive = 1 or less, 8 variable residues between constant flanks
- experimental-setup: 7.5 min
Some of the results follow. The hit rate among all sequences tested is not known here.
furin cleavage Z-score listing for selected sequences.
readout-type: furin cleavage Z-score

* CAEHRLEAACAGNASASA [HC479] | 1.04
* CAQKLPINALAGNASASA [HC1380] | 0.17 (inactive)
* CARQKRFVLSAGNASASA [FU6] | 5.85 (active)
* CARRRRFPFVAGNASASA [FS-1784] | 0.483 (inactive)
* CAHLSRRRRNAGNASASA [FS-1007] | 11.1 (active)
* CATTPCCGSWAGNASASA [HC74] | -2.07 (inactive)

These measurements were taken from the supplement of paper PMC3545927.
